These measurements were taken from patent US4138554A.

# assay.method.text: Mouse blood levels after subcutaneous injection
# Format: in vivo
# experimental.setup: blood, sc, 40 mg/kg, subcutaneous, 40 Mgm./Kg., 0.5 hours, read-out: Blood Levels
measurement.kind: concentration at 0.5 h (ng/mL)
Output spec: scalar in ng/mL, unitless text.

Can you look up the measured concentration at 0.5 h of CC1(C)S[C@@H]2[C@H](NC(=O)C(c3ccccc3)S(=O)(=O)O)C(=O)N2[C@H]1C(=O)O (stereo partly shown) for me? 14000

====

# MIC annotations
# System: Pseudomonas aeruginosa
# assay.method.text: MIC by agar dilution against 61 strains of Pseudomonas aeruginosa, secondary evaluation
# Assay type: cell-based
# experimental.setup: Pseudomonas aeruginosa, BBRI Pa-No. 57, Table 7; read-out: MIC
Enter the number, and then the unit.

Before answering, review these 3 worked examples.
| compound | MIC |
| --- | --- |
| NC(=O)OCC1=C(C(=O)O)N2C(=O)C(NC(=O)[C@H](NC(=O)c3cnc4cccnc4c3O)c3ccccc3)[C@H]2SC1 (stereo partly shown) | 1.6 µg/mL |
| CCN1CCN(C(=O)NC(C(=O)N[C@@H]2C(=O)N3[C@@H]2SC(C)(C)[C@@H]3C(=O)O)c2ccccc2)C(=O)C1=O (stereo partly shown) | 6.3 µg/mL |
| NC(=O)OCC1=C(C(=O)O)N2C(=O)C(NC(=O)[C@H](NC(=O)c3cnc4cccnc4c3O)c3ccc(O)cc3)C2SC1 (single isomer, unassigned) | 0.8 µg/mL |

// fetch Pseudomonas aeruginosa MIC for CC1(C)S[C@@H]2[C@H](NC(=O)C(c3ccccc3)S(=O)(=O)O)C(=O)N2[C@H]1C(=O)O (stereo partly shown) 25 µg/mL
